# Tested on: MDA-MB-231
# experimental-protocol: NCI tumour cell line growth inhibition, 48 h
The source made the active and inactive calls. Rule as the data show it: active = GI50 up to about 1.1 µM and inactive = higher.
endpoint-name: GI50

compound	assay-system	GI50
O=c1c(Cc2ccccc2Cc2c(O)oc3ccccc3c2=O)c(O)oc2ccccc12	MDA-MB-231	> 100 µM (inactive)
CC1=NN(C(=O)CC(=O)Nc2cccc(C)c2)C(=O)C1/N=N/c1ccc(S(=O)(=O)CCOS(=O)(=O)O)cc1 (configuration not stated)	MDA-MB-231	0.275 µM (active)
COc1nc(N)c(N=O)c(OCc2ccccc2)n1	MDA-MB-231	3.32 µM (inactive)
CN(C)Cc1cc(C(=O)/C=C/c2ccc(F)cc2)cc(CN(C)C)c1O	MDA-MB-231	31 µM (inactive)
Cc1nc2ccccc2c(-n2cccn2)c1CCn1cccn1	MDA-MB-231	51.4 µM (inactive)
COC(=O)C1(F)C(=O)NC(=O)NC1O (configuration not stated)	MDA-MB-231	> 100 µM (inactive)

For each of the compounds below, note its GI50.
1. O=C1NC(=O)C(CC2CCCCCCCCCCC2=O)C(=O)N1 (configuration not stated)
2. O=C(O[C@H](/C=C/c1ccccc1)P1(=O)N(Cc2ccccc2)[C@H]2CCCC[C@@H]2N1Cc1ccccc1)c1ccccc1
3. COc1cc(OC)c(-c2cc(=O)c3c(OC)c(OC)c(OC)c(OC)c3o2)cc1OC
4. CC(C)/C(=N\[N+](C)(C)C)c1ccccc1
5. C[n+]1c(-c2ccc(/C=N/NC(=O)c3ccc(C(=O)N/N=C/c4ccc(-c5cn6ccccc6[n+]5C)cc4)cc3)cc2)cn2ccccc21
6. CC1=C(C(=O)NC2CCCCC2)CC(C(=O)NC2CCCCC2)=C(C)N1
7. COc1ccc(C2c3cc4c(cc3OC(N3CCOCC3)C2C)OCO4)cc1OC (configuration not stated)

1. > 100 µM (inactive)
2. 3.49 µM (inactive)
3. 19.8 µM (inactive)
4. > 100 µM (inactive)
5. > 74.3 µM (inactive)
6. > 100 µM (inactive)
7. 16.2 µM (inactive)
